System: MDA-MB-231 complex spheroids, growth inhibition
Experiment: Anticancer human tumor MDA-MB-231 cell line growth inhibition [Asc];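 further: spheroids exposed to compounds for 7 days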
Conditions: second compound 0.0316 µM; first compound 1 µM; stronger effect = lower value
Experimental Readout: viability, T/C

| Molecule | viability, T/C |
| --- | --- |
| C#Cc1c(F)ccc2cc(O)cc(-c3ncc4c(N5CC6CCC(C5)N6)nc(OCC56CCCN5CC(F)C6)nc4c3F)c12 (centres undefined) + CNC(C)C(=O)NC1CN(S(=O)(=O)c2cccc(S(=O)(=O)N3CCC4CCC(C(=O)NC(c5ccccc5)c5ccccc5)N4C(=O)C(NC(=O)C(C)NC)C3)c2)CCC2CCC(C(=O)NC(c3ccccc3)c3ccccc3)N2C1=O | 1.93% |
| COc1c(OCCCN2CCOCC2)ccc2c3n(c(=NC(=O)c4cnc(N)nc4)nc12)CCN3 + CNC(C)C(=O)NC1CN(S(=O)(=O)c2cccc(S(=O)(=O)N3CCC4CCC(C(=O)NC(c5ccccc5)c5ccccc5)N4C(=O)C(NC(=O)C(C)NC)C3)c2)CCC2CCC(C(=O)NC(c3ccccc3)c3ccccc3)N2C1=O | 1.12% |
| CCN1CCN(Cc2ccc(Nc3ncc(F)c(-c4cc(F)c5nc(C)n(C(C)C)c5c4)n3)nc2)CC1 + CNC(C)C(=O)NC1CN(S(=O)(=O)c2cccc(S(=O)(=O)N3CCC4CCC(C(=O)NC(c5ccccc5)c5ccccc5)N4C(=O)C(NC(=O)C(C)NC)C3)c2)CCC2CCC(C(=O)NC(c3ccccc3)c3ccccc3)N2C1=O | 1.71% |

Entry C=C(F)C(=O)N1CCN(c2nc(OCC3CCCN3C)nc3c2CCN(c2cccc4cccc(Cl)c24)C3)CC1CC#N (centres undefined) + CNC(C)C(=O)NC1CN(S(=O)(=O)c2cccc(S(=O)(=O)N3CCC4CCC(C(=O)NC(c5ccccc5)c5ccccc5)N4C(=O)C(NC(=O)C(C)NC)C3)c2)CCC2CCC(C(=O)NC(c3ccccc3)c3ccccc3)N2C1=O ; viability, T/C = 1.07%

The reported numbers originate from PubChem BioAssay AID1963443.
